# Test system: HeLa
# protocol text: Inhibition of heparan sulfate accumulation on cell membrane in human HeLa cells at 20 uM incubated for 48 hrs by indirect immunofluorescence staining analysis
# Assay type: functional, cell-based
Calls of active or inactive are those of the source. The calls are words filed in the database; no cut-off is given here.
Outcomes you can answer with include only these: label 1 = active, label 0 = inactive

Would you please look over these solved cases?
INSERT INTO results (structure, measured_on, discrete_label) VALUES
  ('CCCCCCCCCOCCCCCN1C[C@@H](O)[C@H](O)[C@@H](O)[C@@H]1CO.Cl', 'HeLa', 'label 0'),
  ('CCCCCCOCCCCCN1C[C@@H](O)[C@H](O)[C@@H](O)[C@@H]1CO.Cl', 'HeLa', 'label 0'),
  ('CCCCN1C[C@@H](O)[C@H](O)[C@@H](O)[C@@H]1CO.Cl', 'HeLa', 'label 1'),
  ('COCCCCCCCCCN1C[C@@H](O)[C@H](O)[C@@H](O)[C@@H]1CO.Cl', 'HeLa', 'label 1'),
  ('Cl.OC[C@H]1[C@H](O)[C@@H](O)[C@H](O)CN1CCCCCOCC12CC3CC(CC(C3)C1)C2', 'HeLa', 'label 1'),
  ('CCCCCCCCCN1C[C@@H](O)[C@H](O)[C@@H](O)[C@@H]1CO.Cl', 'HeLa', 'label 0');

From here, focus on the item given below.
**Q:** Kindly provide the recorded test outcome for the following molecule: "Cl.OC[C@@H]1NC[C@@H](O)[C@H](O)[C@H]1O"
**A:** label 1

---

# System: Fibroblast
# protocol text: Inhibition of heparan sulfate accumulation on cell membrane in Sanfilippo-A patient derived human fibroblast cells at 20 uM incubated for 48 hrs by indirect immunofluorescence staining analysis
# Type: functional, cell-based
Active and inactive are the calls of the source. The rule behind the calls is not given here.
Hello, when you answer, please use one of the following outcomes: 1 for active, -1 for inactive

Answered examples (5):
INSERT INTO assay_data (structure, discrete_label) VALUES
  ('CCCCN1C[C@H](O)[C@@H](O)[C@H](O)[C@H]1CO', -1),
  ('Cl.OC[C@H]1[C@H](O)[C@@H](O)[C@H](O)CN1CCCCCOCC12CC3CC(CC(C3)C1)C2', 1),
  ('CCCCN1C[C@@H](O)[C@H](O)[C@@H](O)[C@@H]1CO.Cl', 1),
  ('Cl.OC[C@@H]1NC[C@@H](O)[C@H](O)[C@H]1O', 1),
  ('OC[C@H]1NC[C@H](O)[C@@H](O)[C@@H]1O', -1);

**Q:** Could you check what this test reported for "COCCCCCCCCCN1C[C@@H](O)[C@H](O)[C@@H](O)[C@@H]1CO.Cl" ?
**A:** 1

---

# Tested on: SK-N-BE(2)
# protocol text: Inhibition of lysosomal defects in NAGLU-silenced human SK-NBE cell clones assessed as reduction in more concentrated lysosomal distribution in the perinuclear region of the cytoplasm at 20 uM incubated for 48 hrs by LAMP1 staining based indirect immunofluorescence assay
# Format: functional
Calls of active or inactive are those of the source. The rule behind the calls is not given here.
I would appreciate it if you answered using one of these outcomes: true (1) = active, false (0) = inactive

Observe how each entry below is paired with its result.
INSERT INTO measurements (structure, discrete_label) VALUES
  ('OC[C@H]1NC[C@H](O)[C@@H](O)[C@@H]1O', 'false (0)'),
  ('Cl.OC[C@H]1[C@H](O)[C@@H](O)[C@H](O)CN1CCCCCOCC12CC3CC(CC(C3)C1)C2', 'true (1)'),
  ('CCCCN1C[C@@H](O)[C@H](O)[C@@H](O)[C@@H]1CO.Cl', 'true (1)'),
  ('Cl.OC[C@@H]1NC[C@@H](O)[C@H](O)[C@H]1O', 'true (1)'),
  ('CCCCN1C[C@H](O)[C@@H](O)[C@H](O)[C@H]1CO', 'false (0)');

Next item in the queue.
**Q:** What did this assay record as the result for "COCCCCCCCCCN1C[C@@H](O)[C@H](O)[C@@H](O)[C@@H]1CO.Cl" ?
**A:** true (1)
